Examples of molecules with documented IC50 follow.
biological target: UniProt P21554; experiment: Inverse agonist activity at human CB1 receptor expressed in CHO-K1 cell membrane by GTP-gamma-S assay; assay type: functional, cell membranes
Sequence (P21554 whole entry): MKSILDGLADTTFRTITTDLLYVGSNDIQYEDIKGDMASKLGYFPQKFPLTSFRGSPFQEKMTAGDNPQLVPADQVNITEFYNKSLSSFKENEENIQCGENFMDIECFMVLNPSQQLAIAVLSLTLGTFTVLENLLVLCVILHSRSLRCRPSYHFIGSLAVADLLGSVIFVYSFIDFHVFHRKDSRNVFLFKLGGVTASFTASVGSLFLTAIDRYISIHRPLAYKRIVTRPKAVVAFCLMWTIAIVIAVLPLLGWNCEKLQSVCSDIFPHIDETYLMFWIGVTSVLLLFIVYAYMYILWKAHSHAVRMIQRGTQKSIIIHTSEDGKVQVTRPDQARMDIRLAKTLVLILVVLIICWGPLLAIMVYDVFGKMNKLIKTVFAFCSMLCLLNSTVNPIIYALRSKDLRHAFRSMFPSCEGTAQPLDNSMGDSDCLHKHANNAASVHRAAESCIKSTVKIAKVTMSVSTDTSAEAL
quantity name: IC50

>>> readout_value("N#Cc1cccc(C2(O)CCN(C(=O)c3nn(-c4ccccc4Cl)c(-c4ccc(Cl)cc4)c3CC(N)=O)CC2)c1")
"0.4 nM"
>>> readout_value("NC(=O)Cc1c(C(=O)N2CCC(O)(c3ccccc3F)CC2)nn(-c2ccccc2Cl)c1-c1ccc(Cl)cc1")
"0.5 nM"
>>> readout_value("CS(=O)(=O)N1CCC(NC(=O)c2nn(-c3ccccc3Cl)c(-c3ccc(Cl)cc3)c2CC(N)=O)CC1")
"9.5 nM"
>>> readout_value("O=C(c1nn(-c2ccccc2Cl)c(-c2ccc(Cl)cc2)c1Cc1nn[nH]n1)N1CCC(Oc2ccc(Cl)cc2)CC1")
"47 nM"
>>> readout_value("NC(=O)Cc1c(C(=O)N2CCC(O)(c3ccc(F)cn3)CC2)nn(-c2ccccc2Cl)c1-c1ccc(Cl)cc1")
"1.8 nM"
>>> readout_value("O=C(O)Cc1c(C(=O)N2CCC(c3ccccc3F)CC2)nn(-c2ccccc2Cl)c1-c1ccc(Cl)cc1")
"51 nM"
>>> readout_value("C[C@@H]1C[C@](O)(c2cccc(F)c2)CCN1C(=O)c1nn(-c2ccccc2Cl)c(-c2ccc(Cl)cc2)c1CC(N)=O")
"0.4 nM"
>>> readout_value("N#Cc1ccc(C2(O)CCN(C(=O)c3nn(-c4ccccc4Cl)c(-c4ccc(Cl)cc4)c3CC(N)=O)CC2)cc1")
"0.7 nM"
>>> readout_value("C[C@@H](NC(=O)c1nn(-c2ccccc2Cl)c(-c2ccc(Cl)cc2)c1Cc1nn[nH]n1)c1ccc(F)c(Cl)c1")
"63 nM"
>>> readout_value("O=C(O)Cc1c(C(=O)N2CCC(c3ccc(F)cc3)CC2)nn(-c2ccccc2Cl)c1-c1ccc(Cl)cc1")
"300 nM"
>>> readout_value("NC(=O)Cc1c(C(=O)N2CCC(Oc3cccc(F)c3)CC2)nn(-c2ccccc2Cl)c1-c1ccc(Cl)cc1")
"0.3 nM"
>>> readout_value("O=C(c1nn(-c2ccccc2Cl)c(-c2ccc(Cl)cc2)c1Cc1nn[nH]n1)N1CCC(Oc2cccc(Cl)c2)CC1")
"95 nM"
>>> readout_value("O=C(c1nn(-c2ccccc2Cl)c(-c2ccc(Cl)cc2)c1Cc1nn[nH]n1)N1CCC(Oc2ccc(F)cc2)CC1")
"170 nM"
>>> readout_value("O=C(c1nn(-c2ccccc2Cl)c(-c2ccc(Cl)cc2)c1Cc1nn[nH]n1)N1CCC(Oc2ccc(C(F)(F)F)cc2)CC1")
"120 nM"
>>> readout_value("C[C@@H](NC(=O)c1nn(-c2ccccc2Cl)c(-c2ccc(Cl)cc2)c1Cc1nn[nH]n1)c1ccc(OC(F)(F)F)cc1")
"21 nM"
>>> readout_value("O=C(c1nn(-c2ccccc2Cl)c(-c2ccc(Cl)cc2)c1Cc1nn[nH]n1)N1CCC(Oc2cccc(F)c2F)CC1")
"110 nM"

* * *

Examples of molecules with documented log10 solubility follow.
assay: Solubility of compound; format: physicochemical
quantity name: log10 solubility (log10 of the value in µM)

>>> readout_value("C[C@@H]1CC(O)(c2ccccc2F)C[C@H](C)N1C(=O)c1nn(-c2ccccc2Cl)c(-c2ccc(Cl)cc2)c1CC(N)=O (some centres not stated)")
1.46
>>> readout_value("O=C(c1nn(-c2ccccc2Cl)c(-c2ccc(Cl)cc2)c1Cc1nn[nH]n1)N1CCC(Oc2cc(F)cc(F)c2)CC1")
2.50
>>> readout_value("O=C(c1nn(-c2ccccc2Cl)c(-c2ccc(Cl)cc2)c1Cc1nn[nH]n1)N1CCC(Oc2ccc(F)c(F)c2)CC1")
2.62
>>> readout_value("N#Cc1cccc(C2(O)CCN(C(=O)c3nn(-c4ccccc4Cl)c(-c4ccc(Cl)cc4)c3CC(N)=O)CC2)c1")
1.85
>>> readout_value("NC(=O)Cc1c(C(=O)N2CCC(O)(c3ccccc3F)CC2)nn(-c2ccccc2Cl)c1-c1ccc(Cl)cc1")
1.82
>>> readout_value("O=C(c1nn(-c2ccccc2Cl)c(-c2ccc(Cl)cc2)c1Cc1nn[nH]n1)N1CCC(Oc2cccc(F)c2)CC1")
2.70
>>> readout_value("C[C@@H]1CC(O)(c2cccc(F)c2)C[C@H](C)N1C(=O)c1nn(-c2ccccc2Cl)c(-c2ccc(Cl)cc2)c1CC(N)=O (some centres not stated)")
1.90
